Origin of the recorded values: patent US20250281424A1

study target: human PF4 (Homo sapiens, UniProt P02776)
Construct: PF4 is a 70 amino acid, lysine-rich 7.8 kDa platelet-specific protein; made in house; host or cells: Escherichia coli BL21DE3 pLysS (pT7-7) and/or Drosophila S2 cells
Sequence (P02776 32-101): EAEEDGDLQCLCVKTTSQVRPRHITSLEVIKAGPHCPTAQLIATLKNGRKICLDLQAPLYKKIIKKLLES
test description: Inhibition of PF4 tetramer formation (BS3 cross-linking, SDS-PAGE)
Format: biochemical
recorded conditions: 5 μM inhibitor; read-out: % inhibition of PF4 tetramer formation at single concentration of inhibitor
Entry flag: 1 (yes) if inhibition at 5 µM reaches 80%; 0 (no) if it does not.

[
  {
    "compound": "COC(=O)c1ccc(NC(=O)C2C(=O)c3ccc(S(=O)(=O)c4ccc5c(c4)C(=O)C(C(=O)Nc4ccc(C(=O)OC)cc4)C5=O)cc3C2=O)cc1 (stereo not shown) [Example 98]",
    "study target": "human PF4 (Homo sapiens, UniProt P02776)",
    "answer label": "1 (yes)"
  },
  {
    "compound": "O=C(Cn1cnnn1)C1C(=O)c2ccc(S(=O)(=O)c3ccc4c(c3)C(=O)C(C(=O)Cn3cnnn3)C4=O)cc2C1=O (stereo not shown) [Example 169]",
    "study target": "human PF4 (Homo sapiens, UniProt P02776)",
    "answer label": "0 (no)"
  },
  {
    "compound": "C=C1C[C@@H](C(=O)C2C(=O)c3ccc(C(=O)c4ccc5c(c4)C(=O)C(C(=O)[C@@H]4CC(=C)CN4C(=O)OC(C)(C)C)C5=O)cc3C2=O)N(C(=O)OC(C)(C)C)C1 (stereo partly shown) [Example 133]",
    "study target": "human PF4 (Homo sapiens, UniProt P02776)",
    "answer label": "0 (no)"
  },
  {
    "compound": "O=C(CC1CC1)C1C(=O)c2ccc(S(=O)(=O)c3ccc4c(c3)C(=O)C(C(=O)CC3CC3)C4=O)cc2C1=O (stereo not shown) [Example 149]",
    "study target": "human PF4 (Homo sapiens, UniProt P02776)",
    "answer label": "0 (no)"
  },
  {
    "compound": "COc1ccccc1NC(=O)C1C(=O)c2ccc(S(=O)(=O)c3ccc4c(c3)C(=O)C(C(=O)Nc3ccccc3OC)C4=O)cc2C1=O (stereo not shown) [Example 69]",
    "study target": "human PF4 (Homo sapiens, UniProt P02776)",
    "answer label": "0 (no)"
  },
  {
    "compound": "COCCNC(=O)C1C(=O)c2ccc(C(=O)c3ccc4c(c3)C(=O)C(C(=O)NCCOC)C4=O)cc2C1=O (stereo not shown) [Example 74]",
    "study target": "human PF4 (Homo sapiens, UniProt P02776)",
    "answer label": "0 (no)"
  },
  {
    "compound": "CO[C@@H](C(=O)C1C(=O)c2ccc(C(=O)c3ccc4c(c3)C(=O)C(C(=O)[C@H](OC)c3ccccc3)C4=O)cc2C1=O)c1ccccc1 (stereo partly shown) [Example 119]",
    "study target": "human PF4 (Homo sapiens, UniProt P02776)",
    "answer label": "1 (yes)"
  },
  {
    "compound": "CCOC(=O)CNC(=O)C1C(=O)c2ccc(C(=O)c3ccc4c(c3)C(=O)C(C(=O)NCC(=O)OCC)C4=O)cc2C1=O (stereo not shown) [Example 30]",
    "study target": "human PF4 (Homo sapiens, UniProt P02776)",
    "answer label": "0 (no)"
  }
]
